These data points were gathered from patent US20210024646A1.

- assay.system: T1, CD73 on the surface of human tumor cells (human, UniProt P21589 27-549)
- T1 chain: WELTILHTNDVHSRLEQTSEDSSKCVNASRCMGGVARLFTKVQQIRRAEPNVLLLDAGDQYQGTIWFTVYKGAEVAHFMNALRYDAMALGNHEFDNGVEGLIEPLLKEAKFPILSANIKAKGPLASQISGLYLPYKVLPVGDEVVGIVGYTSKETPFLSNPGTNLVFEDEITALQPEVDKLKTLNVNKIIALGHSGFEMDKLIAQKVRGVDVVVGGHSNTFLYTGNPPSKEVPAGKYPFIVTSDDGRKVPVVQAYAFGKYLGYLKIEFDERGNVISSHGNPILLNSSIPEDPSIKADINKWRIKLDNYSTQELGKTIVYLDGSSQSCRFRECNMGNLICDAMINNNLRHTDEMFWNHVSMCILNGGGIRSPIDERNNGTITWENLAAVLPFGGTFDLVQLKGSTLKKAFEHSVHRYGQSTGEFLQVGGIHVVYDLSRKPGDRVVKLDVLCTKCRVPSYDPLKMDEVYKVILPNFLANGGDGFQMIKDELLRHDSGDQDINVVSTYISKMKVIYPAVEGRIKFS
- assay.procedure: FACS; MDA-MB-231 cells, right table
Recorded pEC50 values for a group of binders are listed next.
The scale used: pEC50 is minus the common logarithm of the concentration in molar units.

Example cases with answers are listed next.
binder: mAb002c-VH-QG/VK-SG (antibody, V domains shown) VH: QVQLQQPGAELVKPGASVRLSCKASGYTLTSYWMHWVKKRPGQGLEWIGEINPSQGRSNYNEKFKSKATLTVDRSSSTVYMQLGSLTSEDSAVYYCARRGVSGNYFDYWGQGTTLTVSS VL: DIKMTQSPSSMYASLGERVTMTCKASQDINTYLSWFQQKPGKSPKTLIYRSNILVSGVPSRFSGSRSGQDYYLTITSLEYEDMGIYYCLQYDEFPYTFGGGTKLELK
pEC50: 9.25

binder: Hu002c-15 (antibody, V domains shown) VH: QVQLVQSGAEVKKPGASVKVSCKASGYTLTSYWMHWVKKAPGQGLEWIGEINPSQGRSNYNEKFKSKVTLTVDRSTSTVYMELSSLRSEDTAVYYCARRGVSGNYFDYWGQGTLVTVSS VL: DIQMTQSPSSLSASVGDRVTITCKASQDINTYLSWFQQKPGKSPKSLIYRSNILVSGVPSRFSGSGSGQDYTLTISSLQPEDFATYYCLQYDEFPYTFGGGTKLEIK
pEC50: 9.14

Here's the next entry for you.
Item: Hu002c-12 (antibody, V domains shown) VH: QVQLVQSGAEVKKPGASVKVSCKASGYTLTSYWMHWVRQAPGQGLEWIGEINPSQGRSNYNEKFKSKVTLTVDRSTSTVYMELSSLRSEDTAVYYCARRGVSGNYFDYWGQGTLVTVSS VL: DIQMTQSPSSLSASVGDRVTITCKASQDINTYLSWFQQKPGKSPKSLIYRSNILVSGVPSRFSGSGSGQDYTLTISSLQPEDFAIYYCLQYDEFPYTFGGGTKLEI | pEC50: 9.15
